Values from patent US9732094B2

Quick reference: IC50 of the listed items.
- Assayed Target: DNA-PK phosphorylation at serine 2056 (Homo sapiens (Human))
- Assay Procedure: DNA-PK phosphorylation at serine 2056 (cellular), bleomycin-treated HCT116 cells, ELISA
- Format: cell-based
- Conditions Used: cellular DNA-PK phosphorylation at serine 2056, HCT116; read-out: IC50 pDNA-PK

Ask: Identify the reported IC50 for the following entry. NC(=O)C(c1ccc(F)c(-c2ncnc3cc(N4CCOCC4)ccc23)c1)c1cncc(F)c1Cl (stereo not shown) [Example 322]
Result: 0.5 to 5 µM

Ask: Return reported IC50. Input molecule: COc1nccnc1C(O)c1cc(-c2ncnc3cc(N4CCOCC4)ccc23)c(F)cc1F (stereo not shown) [Example 467]
Result: < 0.5 µM

Ask: Identify measured IC50 associated with NC(=O)C(c1cc(-c2ncnc3cc(N4CCOCC4)ccc23)c(F)cc1Cl)c1cccc2nncn12 (stereo not shown) [Example 298]
Result: 10 to 30 µM

Ask: In one line, give reported IC50 of the entry Cn1cnc2c(C(O)c3cc(-c4ncnc5cc(N6CCOCC6)ccc45)c(F)cc3F)ncnc21 (stereo not shown) [Example 421] .
Result: 0.5 to 5 µM
